# measured-target: unrelated Fc-fused recombinant protein
# measurement-protocol: ELISA, negative control Fc protein
experimental-readout: ELISA Fc Control (RLU)
Please give a number only; it is taken to be in RLU.

Solved entries:
# binder, quantity-unit, ELISA Fc Control (RLU)
data = [
    ("ISOP193HR9P1E3 (designed binder, not shown: small tags and cut ends) LPAPKNLVVSRVTEDSARLSWTAPDAAFDSFEIYYFELRLGGEAIVLTVPGSERSYDLTGLKPGTEYLVTIYGVKGGAYSNPLSAIFTT", "RLU", 1120),
    ("ISOP193AR9P1A11 (designed binder, not shown: small tags and cut ends) LPAPKNLVVSRVTEDSARLSWALSSVHAYFDSFLIQYQESEKVGEAIVLTVPGSERSYDLTGLKPGTEYTVSIYGVQYVDGFFKSNPLSAIFTT", "RLU", 1440),
    ("ISOP193FR9P1D7 (designed binder, not shown: small tags and cut ends) LPAPKNLVVSRVTEDSARLSWTAPDAAFDSFEIYYAEYFKNGEAIVLTVPGSERSYDLTGLKPGTEYLVTIYGVKGCDWSDPLSAISTT", "RLU", 15000),
]

Let's switch to this binder now.
Data request: May I ask what ELISA Fc Control (RLU) has been recorded for ISOP193ER9P1E2 (designed binder, not shown: small tags and cut ends) LPAPKNLVVSRVTEDSARLSWTAPDAAFDSFDIYYFEHPVGGEAIVLTVPGSERSYDLTGLKPGTEYLVTIYGVKGGFWSQPLSAIFTT ?
Data returned: 1040
